Molecular target: T1, TNFR1 (Homo sapiens, UniProt P19438)
T1 chain: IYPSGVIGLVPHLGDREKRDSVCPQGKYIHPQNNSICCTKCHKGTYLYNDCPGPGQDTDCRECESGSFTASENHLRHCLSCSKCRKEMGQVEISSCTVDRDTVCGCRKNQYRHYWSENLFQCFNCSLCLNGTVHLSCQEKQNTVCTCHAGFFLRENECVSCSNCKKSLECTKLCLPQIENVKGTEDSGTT
Assay: yeast display SC50
measurementKind: apparent Kd (screen) (nM)
Report only the number, with the unit nM understood.

INSERT INTO results (binder, resultunit, reportedresult) VALUES
  ('D65K (designed binder) MTLQELLREEALRRAEAEAFRYALELLAEKFPEQKEYLLDLAEEIESQIRSLSGVDVEDVRKFLKKEWAWVKELLAEHPAELAEVEAARAARLAELRAEVEAKVAA', 'nM', 0.539),
  ('E33N (designed binder) MTLQELLREEALRRAEAEAFRYALELLAEKFPNQKEYLLDLAEEIESQIRSLSGVDVEDVRKFLDKEWAWVKELLAEHPAELAEVEAARAARLAELRAEVEAKVAA', 'nM', 0.539),
  ('T2C (designed binder) MCLQELLREEALRRAEAEAFRYALELLAEKFPEQKEYLLDLAEEIESQIRSLSGVDVEDVRKFLDKEWAWVKELLAEHPAELAEVEAARAARLAELRAEVEAKVAA', 'nM', 2.73);

Continue with the binder presented below.
Query string: Quick check: apparent Kd (screen) of L26Q (designed binder) MTLQELLREEALRRAEAEAFRYALEQLAEKFPEQKEYLLDLAEEIESQIRSLSGVDVEDVRKFLDKEWAWVKELLAEHPAELAEVEAARAARLAELRAEVEAKVAA ?
Result string: 0.593
